The molecules listed here are annotated with their inhibition.
studyTarget: Mannose-6-phosphate isomerase (Homo sapiens) (UniProt P34949)
Sequence (P34949 whole entry, looked up): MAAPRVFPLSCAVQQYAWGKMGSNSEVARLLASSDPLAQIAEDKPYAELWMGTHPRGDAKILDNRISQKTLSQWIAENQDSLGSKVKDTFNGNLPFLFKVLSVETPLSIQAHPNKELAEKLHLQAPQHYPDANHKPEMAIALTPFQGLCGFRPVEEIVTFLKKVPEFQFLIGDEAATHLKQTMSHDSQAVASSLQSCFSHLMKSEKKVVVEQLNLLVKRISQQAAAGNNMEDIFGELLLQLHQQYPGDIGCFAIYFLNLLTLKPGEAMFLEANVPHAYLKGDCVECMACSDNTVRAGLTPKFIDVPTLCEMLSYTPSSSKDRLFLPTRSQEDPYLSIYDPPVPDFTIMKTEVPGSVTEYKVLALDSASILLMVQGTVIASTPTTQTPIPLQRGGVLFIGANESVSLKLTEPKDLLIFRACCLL
protocolDescription: MPI inhibition at elevated mannose 6-phosphate – biochemical, fluorescence intensity, high mannose 6-phosphate, primary screen (AID 1220)
measurementParameters: recombinant PMI enzyme, coupled fluorescence intensity; at 20 µM; hits give high values
The campaign covered roughly 190,000 compounds. About 1,300 (0.68%) were called active. The list comes from a sample in which actives are over-represented; it also holds close analogues and randomly drawn compounds.

Consider the following illustrative entries.
molecule | inhibition
Cc1ccc(CN(c2ccc(C(=O)N3CCCC3)cc2)S(C)(=O)=O)cc1 | -1.2% (inactive)
COc1ccc([N+](=O)[O-])cc1COc1cc(C)cc2oc(=O)cc(-c3ccccc3)c12 | 58% (active)
CCOc1ccc(OCCCCNCCN)cc1 | -2.4% (inactive)
CCOC(=O)/C(C#N)=C1/C=CN(Cc2ccccc2)C=N1 | 1.1% (inactive)
COc1ccc([N+](=O)[O-])cc1COc1ccc2c(-c3ccccc3)cc(=O)oc2c1 | -4.2% (inactive)
CCOc1cc(C)cc2oc(=O)cc(-c3ccccc3)c12 | 6.3% (inactive)
CCOc1ccc(OCCCCNC(C)(C)C)cc1 | 58.8% (active)
O=C(COC(=O)c1c2ccccc2cc2ccccc12)Nc1ncc(C(F)(F)F)cc1Cl | 2.9% (inactive)

I am curious: what inhibition value has been reported for COc1ccc(C(=O)CSc2nnc(CNC(=O)c3ccc(OC)cc3)n2C)cc1 ?
-5.4% (inactive)

Another molecule to look at: CCOc1ccccc1C1N(c2ccc(OC)cc2)C(=O)C2CCCN21 (stereo unspecified)
2.6% (inactive)

Another molecule to look at: O=C(O)c1ccc(CSCc2ccco2)cc1
4.1% (inactive)

* * *

studyTarget: Mannose-6-phosphate isomerase (Homo sapiens)
protocolDescription: MPI inhibition at elevated mannose 6-phosphate – biochemical, fluorescence intensity, high mannose 6-phosphate, primary screen (AID 1220)
measurementParameters: recombinant PMI enzyme, coupled fluorescence intensity; at 20 µM; hits give high values
The campaign covered roughly 190,000 compounds. About 1,300 (0.68%) were called active. The full list was thinned out, with actives kept by preference.
quantityKind: inhibition (%)
Output spec: scalar in %, unitless text.

compound | studyTarget | unitsLabel | inhibition
COc1ccc(C(=O)/C=C/c2ccccc2)c(OC)c1 | Mannose-6-phosphate isomerase (Homo sapiens) | % | 1.9
COC(=O)c1ccc(NC(=S)NC2c3ccccc3CC2O)cc1 (stereo unspecified) | Mannose-6-phosphate isomerase (Homo sapiens) | % | 15.2
COc1ccc(C(=O)/C=C/c2cc(OC)c(O)c(OC)c2)c(F)c1 | Mannose-6-phosphate isomerase (Homo sapiens) | % | 62.9
COc1ccc(/C=C/C(=O)c2ccc(OC)cc2OC)c(OC)c1 | Mannose-6-phosphate isomerase (Homo sapiens) | % | 9.4
Nc1ncc(-n2cncn2)c(-c2ccc(Cl)cc2)n1 | Mannose-6-phosphate isomerase (Homo sapiens) | % | 9.9

Continue with the next compound.
I am curious: what inhibition value has been reported for CCOC(=O)/C(C#N)=C\c1ccc(OC)c(OC)c1 ?
-3.6

* * *

studyTarget: Mannose-6-phosphate isomerase (Homo sapiens) (UniProt P34949)
protocolDescription: MPI inhibition at elevated mannose 6-phosphate – biochemical, fluorescence intensity, high mannose 6-phosphate, primary screen (AID 1220)
measurementParameters: recombinant PMI enzyme, coupled fluorescence intensity; at 20 µM
Out of some 190,000 compounds screened, about 1,300 (0.68%) were called active. No stated cut-off is given here; in the data, active means inhibition above about 50%; inactive means the rest. This is one part of a sample in which actives are shown more often than they occur.
Choose one outcome from this list and give only that: active, inactive

Sample answers from the record:
compound | studyTarget | classLabel
O=C(CN1C(=O)c2ccccc2C1=O)N1CCOCC1 | Mannose-6-phosphate isomerase (Homo sapiens) (UniProt P34949) | inactive
Cc1ccc(NC(=O)c2cc3ccccc3o2)cc1S(=O)(=O)N(C)C | Mannose-6-phosphate isomerase (Homo sapiens) (UniProt P34949) | inactive
CCc1nnc(NC(=O)CSc2nnc3c(C)cc4c(C)ccc(C)c4n23)s1 | Mannose-6-phosphate isomerase (Homo sapiens) (UniProt P34949) | inactive
CCOc1cc(NC(=S)NCc2ccco2)c(OCC)cc1NC(C)=O | Mannose-6-phosphate isomerase (Homo sapiens) (UniProt P34949) | inactive
Cc1cc(S(=O)(=O)N(Cc2ccc(C(C)C)cc2)CC2CCCO2)ccc1-n1cnnn1 (stereo unspecified) | Mannose-6-phosphate isomerase (Homo sapiens) (UniProt P34949) | inactive

Could you kindly confirm the outcome this assay logged for CCOC(=O)c1c(-c2ccccc2)csc1NC(=S)N(CC)CC ?
inactive
